# measurementTarget: MAb 445-2
# measurementDescription: MAb inhibition ELISA; free peptide inhibits 445-2 binding to coated hG34(16-34)-Gly 35-BSA
Where no end group is shown, it is not given here. [ ]: non-standard residue; d: D form. pGlu = O=C1CC[C@@H](C(=O)O)N1
measurementName: IC50 (µM)

P = [pGlu]GPWLEEEEEAYGWMDFG (ends and bridges not checked) [glycine-extended gastrin-17 (G17-Gly)]
Q = CPPPPSSYGWMDFG [hG17(12-17)-Gly18 peptide …]
Q: Looking at P and Q , which one comes out lower in IC50 terms? Mark your selection by writing its label.
Result: P
